Provenance of the data: patent US20160200733A1

Provide the reported EC50 of each item.
Target: mAChR hM4 (Homo sapiens)
Sequence (P08173 whole entry): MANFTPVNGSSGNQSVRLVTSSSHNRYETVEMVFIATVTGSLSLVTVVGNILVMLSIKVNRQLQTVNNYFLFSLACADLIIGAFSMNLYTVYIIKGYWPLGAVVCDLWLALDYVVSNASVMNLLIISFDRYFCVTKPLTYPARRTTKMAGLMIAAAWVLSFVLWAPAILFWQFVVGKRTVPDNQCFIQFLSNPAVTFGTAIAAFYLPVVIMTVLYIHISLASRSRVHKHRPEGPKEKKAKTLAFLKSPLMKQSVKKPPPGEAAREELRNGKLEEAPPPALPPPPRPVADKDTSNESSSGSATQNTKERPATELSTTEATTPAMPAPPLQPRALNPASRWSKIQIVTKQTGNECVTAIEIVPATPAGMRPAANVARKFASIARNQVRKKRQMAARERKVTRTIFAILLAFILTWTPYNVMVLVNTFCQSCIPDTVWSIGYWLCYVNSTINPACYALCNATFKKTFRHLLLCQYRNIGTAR
Assay: mAChR M4 cell-based functional assay (calcium flux, potentiation of EC20 acetylcholine response)
Details: mAChR hM4 cell-line; >10,000 estimated for low potency compounds lacking a plateau

For orientation, consider the following solved cases.
| COMPOUND | VALUE MEASURED |
| --- | --- |
| Cc1cc(C)c2c(Br)c(C(=O)NC(C)C)sc2n1 | > 10 µM |
| COc1ccc(CNC(=O)c2sc3nc(C)c(Cl)c(C)c3c2Br)cc1 | > 10 µM |
| Cc1nc2sc(C(=O)NCc3cnn(-c4ccccc4)c3)c(C3CC3)c2c(C)c1Cl | > 10 µM |
| Cc1nc2sc(C(=O)NC3CCS(=O)(=O)C3)c(C3CC3)c2c(C)c1Cl (stereo not drawn) | > 10 µM |
| Cc1nc2sc(C(=O)NC3CCOC3)c(Br)c2c(C)c1Cl (stereo not drawn) | 0.59 µM |

Okay, here is my list. What is EC50 for each of these?
1. Cc1nc2sc(C(=O)NC3COC3)c(Br)c2c(C)c1Cl [Compound 61]
2. Cc1nc2sc(C(=O)N3CCOCC3)c(-c3cnn(C)c3)c2c(C)c1Cl
3. Cc1nc2sc(C(=O)NC3CCC3)c(Cl)c2c(C)c1Cl
4. Cc1nc2sc(C(=O)N[C@@H](C)C3CC3)c(Cl)c2c(C)c1Cl

Output:
["0.36 µM", "> 10 µM", "> 10 µM", "> 10 µM"]
